Data origin: patent US20060257938A1

experiment: Probe fluorescence ratio response to linolenic acid relative to ADIFAB2; assay type: binding; conditions: response relative to ADIFAB2
metric: DR/DR LNA
Give the figure only, with no unit attached.

Known results for molecules:
104D1, 72A (protein, listed as Rattus norvegicus, PEPTIDE (1)...(131) wild-type rat intestinal fatty acid binding protein) AFDGTWKVDRNENYEKFMEKMGINVVKRKLGAHDNLKLTITQEGNKFTVKESSNFRNIDVVFELGVDFAYSAADGTELTGTWTMEGNKLVGKFKRVDNGKELIDVREISGNELIQTYTYEGVEAKRIFKKE ... 0.67
14Q 18S 73I 117W 72A (protein, listed as Rattus norvegicus, PEPTIDE (1)...(131) wild-type rat intestinal fatty acid binding protein) AFDGTWKVDRNENQEKFSEKMGINVVKRKLGAHDNLKLTITQEGNKFTVKESSNFRNIDVVFELGVDFAYSAIDGTELTGTWTMEGNKLVGKFKRVDNGKELIAVREISGNELIQTWTYEGVEAKRIFKKE ... 0.894
115N2, 72A (protein, listed as Rattus norvegicus, PEPTIDE (1)...(131) wild-type rat intestinal fatty acid binding protein) AFDGTWKVDRNENYEKFMEKMGINVVKRKLGAHDNLKLTITQEGNKFTVKESSNFRNIDVVFELGVDFAYSAADGTELTGTWTMEGNKLVGKFKRVDNGKELIAVREISGNELINTYTYEGVEAKRIFKKE ... 0.73
55L, 72A (protein, listed as Rattus norvegicus, PEPTIDE (1)...(131) wild-type rat intestinal fatty acid binding protein) AFDGTWKVDRNENYEKFMEKMGINVVKRKLGAHDNLKLTITQEGNKFTVKESSNLRNIDVVFELGVDFAYSAADGTELTGTWTMEGNKLVGKFKRVDNGKELIAVREISGNELIQTYTYEGVEAKRIFKKE ... 0.719
115A1, 72A (protein, listed as Rattus norvegicus, PEPTIDE (1)...(131) wild-type rat intestinal fatty acid binding protein) AFDGTWKVDRNENYEKFMEKMGINVVKRKLGAHDNLKLTITQEGNKFTVKESSNFRNIDVVFELGVDFAYSAADGTELTGTWTMEGNKLVGKFKRVDNGKELIAVREISGNELIATYTYEGVEAKRIFKKE ... 1.26

From here, focus on the item given below.
Exercise: What value of DR/DR LNA has been recorded for this entry: 117R, 72A (protein, listed as Rattus norvegicus, PEPTIDE (1)...(131) wild-type rat intestinal fatty acid binding protein) AFDGTWKVDRNENYEKFMEKMGINVVKRKLGAHDNLKLTITQEGNKFTVKESSNFRNIDVVFELGVDFAYSAADGTELTGTWTMEGNKLVGKFKRVDNGKELIAVREISGNELIQTRTYEGVEAKRIFKKE
Key: 0.70
